target: FAST (Halorhodospira halophila, UniProt P16113, C69G/D97P/F96I/M100R/Q99S/T101G/T95M/Y94W/Y98T); construct: His-tag; made in house; host or cells: Rosetta(DE3)pLysS E. coli; experiment: Spectroscopic properties of FAST:fluorogen complexes in PBS pH 7.4 (absorption, emission, quantum yield); format: physicochemical; details: FAST:fluorogen complex, PBS pH 7.4
Sequence (P16113 whole entry C69G/Y94W/T95M/F96I/D97P/Y98T/Q99S/M100R/T101G): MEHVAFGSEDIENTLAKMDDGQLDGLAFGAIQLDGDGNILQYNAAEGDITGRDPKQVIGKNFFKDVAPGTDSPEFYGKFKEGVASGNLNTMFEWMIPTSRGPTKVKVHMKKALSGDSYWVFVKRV
METRIC: ε, molar absorption coefficient at λ abs (mM^–1 cm^–1)
Field format: number, assumed mM^–1 cm^–1, no unit text.

> print(dat)
                                   molecule  reported.measurement
1  COc1cc(/C=C2\SC(=S)NC2=O)ccc1O [HBR-3OM]                    40
2  COc1cc(/C=C2\SC(=S)NC2=O)cc(OC)c1O [HBR-3,5DOM]                    39
3  Cc1cc(C=C2SC(=S)NC2=O)ccc1O [HMBR, 4-hydroxy-3-methylbenzylidene rhodanine, reference compound]                    45
4  Cc1cc(/C=C2\SC(=S)NC2=O)c(C)cc1O [HBR-2,5DM]                    50
5  Cc1cc(/C=C2\SC(=S)NC2=O)cc(C)c1O [HBR-3,5DM]                    48
6   CCc1cc(/C=C2\SC(=S)NC2=O)ccc1O [HBR-3E]                    50

Next molecule, ε, molar absorption coefficient at λ abs to be filled in.
In: I would be grateful if you could share the reported ε, molar absorption coefficient at λ abs for CCOc1cc(/C=C2\SC(=S)NC2=O)ccc1O [HBR-3OE] .
Out: 41

---

Below: a set of entries, each annotated with reported Kd.
biological target: FAST (Halorhodospira halophila, UniProt P16113, C69G/D97P/F96I/M100R/Q99S/T101G/T95M/Y94W/Y98T); construct: His-tag; experiment: Affinity constants by spectrofluorometric titration of FAST with fluorogen
Please respond with the number in nM and leave the unit unwritten.

Solved entries:
> print(dat)
                                   compound  unit.info  reported.measurement
1  CCOc1cc(/C=C2\SC(=S)NC2=O)ccc1O [HBR-3OE]         nM                   270
2   CCc1cc(/C=C2\SC(=S)NC2=O)ccc1O [HBR-3E]         nM                    80
3  Cc1cc(/C=C2\SC(=S)NC2=O)cc(C)c1O [HBR-3,5DM]         nM                    80
4  Cc1cc(/C=C2\SC(=S)NC2=O)c(C)cc1O [HBR-2,5DM]         nM                     8

Okay, next one:
In: Which Kd value is on record for COc1cc(/C=C2\SC(=S)NC2=O)ccc1O [HBR-3OM] ?
Out: 310

---

biological target: FAST (Halorhodospira halophila, UniProt P16113, C69G/D97P/F96I/M100R/Q99S/T101G/T95M/Y94W/Y98T); construct: His-tag; made in house; host or cells: Rosetta(DE3)pLysS E. coli; assay: Spectroscopic properties of FAST:fluorogen complexes in PBS pH 7.4 (absorption, emission, quantum yield); type: physicochemical; conditions: FAST:fluorogen complex, PBS pH 7.4
METRIC: φ, fluorescence quantum yield

Some solved cases for reference:
> print(dat)
                      smiles.notation                         metric  reported.measurement
1      COc1cc(/C=C2\SC(=S)NC2=O)ccc1O  φ, fluorescence quantum yield                   36%
2    Cc1cc(/C=C2\SC(=S)NC2=O)cc(C)c1O  φ, fluorescence quantum yield                   49%
3      CCc1cc(/C=C2\SC(=S)NC2=O)ccc1O  φ, fluorescence quantum yield                   13%
4  COc1cc(/C=C2\SC(=S)NC2=O)cc(OC)c1O  φ, fluorescence quantum yield                   31%
5     CCOc1cc(/C=C2\SC(=S)NC2=O)ccc1O  φ, fluorescence quantum yield                   17%

Here's the next entry for you.
In: // φ, fluorescence quantum yield lookup, key: "Cc1cc(/C=C2\SC(=S)NC2=O)c(C)cc1O"
Out: 29%

---

Target: FAST (Halorhodospira halophila, UniProt P16113, C69G/D97P/F96I/M100R/Q99S/T101G/T95M/Y94W/Y98T)
Construct: His-tag; made in house; host or cells: Rosetta(DE3)pLysS E. coli
Assay: Spectroscopic properties of FAST:fluorogen complexes in PBS pH 7.4 (absorption, emission, quantum yield)
Assay type: physicochemical
Conditions: FAST:fluorogen complex
Protocol: The UV/Vis absorption spectra were recorded with 1 cm × 1 cm quartz cuvettes (Hellma) on a diode array UV/Vis spectrophotometer (Evolution array, Thermo Scientific). The corrected fluorescence spectra upon one-photon excitation were recorded with a Photon Technology International QuantaMaster QM-1 spectrofluorimeter (PTI, Monmouth Junction, NJ) equipped with a Peltier cell holder (TLC50, Quantum Northwest, Shoreline, WA). […]
METRIC: red-shifted emission relative to FAST:HMBR

Guide cases for red-shifted emission relative to FAST:HMBR, answers given:
> print(dat)
                      smiles.notation  reported.measurement
1     CCOc1cc(/C=C2\SC(=S)NC2=O)ccc1O              10–20 nm
2  COc1cc(/C=C2\SC(=S)NC2=O)cc(OC)c1O                 60 nm
3    Cc1cc(/C=C2\SC(=S)NC2=O)c(C)cc1O              10–20 nm

In: Need red-shifted emission relative to FAST:HMBR, item "COc1cc(/C=C2\SC(=S)NC2=O)ccc1O"
Out: 10–20 nm

In: Using the record for "Cc1cc(/C=C2\SC(=S)NC2=O)cc(C)c1O" , report its red-shifted emission relative to FAST:HMBR.
Out: 10–20 nm
